assay: Selectivity index, ratio of CC50 for human HeLa cells to EC50 for pseudotyped Ebola virus infected in HeLa cells; type: toxicity, cell-based; conditions: read-out: Ratio CC50/EC50
result-type: selectivity ratio

[Q] Give its selectivity ratio value. Item: O=C(CCNCCN1CCN(Cc2ccccc2)CC1)NN(c1ccccc1)c1ccccc1
[A] 274

[Q] Now give it for O=C(CCNCCC1CCN(Cc2ccccc2)CC1)NN(c1ccccc1)c1ccccc1 too.
[A] 115
